Where these numbers come from: the supplement of paper PMC9112550

Test system: Escherichia coli TOP10;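 note: peptides expressed intracellularly from a pBAD plasmid library in pooled LB shake-flask culture, induced with 0.3% L-arabinose, DNA abundance read by NGS, three biological replicates, DESeq2 with apeglm shrinkage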
Experiment: shrunken log2 fold change of peptide-encoding DNA abundance (4.5 h post-induction vs induction); higher = less antimicrobial activity (less host growth inhibition)
Settings: time post-induction: 4.5 h; library: site-saturation at positions 5, 18, 19, 20
Mark n for shrunken log2 fold change values under 0.04, and y for everything at or above.

Worked examples, 3 sequences total:
- sequence_data: "RRIRRRPPRLPRPRPRPLFGPRP"
  cat: "y"
- sequence_data: "RRIRWRPPRLPRPRPRPDFRPRP"
  cat: "y"
- sequence_data: "RRIRMRPPRLPRPRPRPAFMPRP"
  cat: "y"

// inclusive: shrunken log2 fold change at least 0.04? input: RRIRSRPPRLPRPRPRPRTFPRP
n

// inclusive: shrunken log2 fold change at least 0.04? input: RRIRSRPPRLPRPRPRPPHYPRP
y

// inclusive: shrunken log2 fold change at least 0.04? input: RRIRVRPPRLPRPRPRPLMVPRP
n

// inclusive: shrunken log2 fold change at least 0.04? input: RRIRTRPPRLPRPRPRPCGTPRP
n

// inclusive: shrunken log2 fold change at least 0.04? input: RRIRWRPPRLPRPRPRPVHQPRP
y

// inclusive: shrunken log2 fold change at least 0.04? input: RRIRRRPPRLPRPRPRPGLFPRP
y

// inclusive: shrunken log2 fold change at least 0.04? input: RRIRSRPPRLPRPRPRPSAHPRP
y

// inclusive: shrunken log2 fold change at least 0.04? input: RRIRKRPPRLPRPRPRPHLEPRP
n

// inclusive: shrunken log2 fold change at least 0.04? input: RRIRGRPPRLPRPRPRPRFGPRP
y

// inclusive: shrunken log2 fold change at least 0.04? input: RRIRPRPPRLPRPRPRPYYVPRP
n

// inclusive: shrunken log2 fold change at least 0.04? input: RRIRDRPPRLPRPRPRPCGMPRP
n
